Assay comment: yeast display, Sf9 membrane polyspecificity reagent, FACS + sequencing; frameworks hold sequencing errors
Recorded metric: polyreactivity (PSR sort gate)

Solved cases (8 shown):
QVQLVESGGGLVQAGGSLRLSCAASGITFAYYAKAWYRQAPGKERELVAAINWSGGSTYYADSVKGRFTISRDNAKNTVYLQMNSLKPEDTAVYYCNAVPRRGYSRRDYWGQGTQVTVSS high polyreactivity
QVQLVESGGGLFQAGGSLRLSCAASGRTFVHNAMGWYRQAPGKERDLVAVITSGARTTYADSVKGRFTISRDNAKNTVYLQMNSLKPEDTAVYYFAAGTFSVIFSYKYRHYYYWGQGTQVTVSS low polyreactivity
QVQLVESGGGLVQAGGSLRLSCAASGFIFLYNAMGWYRQAPGKERELVATITSGGSTNYADSVKGRFTISRDNAKNTVYLQMNSLKPEDTAVYYCAVRRKAYYSYYYHDPYYYWGQGTQVTVSS low polyreactivity
QVQLVESGGGLVQAGGSLRLSCAASGSILWSYAMGWYRQAPGKERELVAAITSGGSTYYADSVKGRFTISRDNAKNTVYLQMNSLKPEDTAVYYCAADRWRDFWFNEEYWGQGTQVTVSS high polyreactivity
QVQLVESGGGLVQAGGSLRLSCAASGRIFNYYAMGWYRQAPGKERELVASITSRGGTTYYADSVKGRFTISRDKAKKTVYLQMNSLIPEDTAVYYCAAFTRPVSRRSRMNYWGQGTQVTVSS high polyreactivity
QVQLVESGGGLVQAGGSLRLSSAASGSIFSSYAMGWYRQAPGKERELVAAISTGGSTYYADSVKGRFTISRDNAKNTVYLQMNSLKPEDTAVYYCAAGIMDLKLYFSSYDYWGQGTQVTVSS low polyreactivity
QGQLVESGGGLVQAGGRLSLSCAASGFTFDNYAMGWYSQAPGKERELVAAITSGGSTNYADSVKGRFTISRDNAKNTVYLQMNSLKPEDTAVYYCNVERSIQAQVNAEYYYWGQGTQVSVSS low polyreactivity
QVQLVESGGGLVQAGGSLRLSCAASGSNFDPNAMGWYRQAPGKERELVAAISWSGGSTYYADSVKGRFTISRDNAKNTVYLQMNSLKPEDTAVSYCNAQFYDSYSYTNDDWGQGTLVTVSS low polyreactivity

Hi! Can you tell me polyreactivity (PSR sort gate) for each of these sequences?
1. QVQLVESGGGLFQAGGSLRLSCAASGRIFDYNVMGWYRQAPGKERELVADINGSGGGTNYADSVKGRFTISRDNAKNTVYLQMNSLKPEDTAVYYCNADSYEYHVPYYDYRYDYWGQGTQVTVSS
2. QVQLVESGGGLVQAGGSLRLSCAASGRIFYLYAMGWYRQAPGKERELVATINTSGGITYYADSVKGRFTISRDNAKNTVYLQMNSLKPEDTAVYYCNADWEWQYFYFRPGGYWGQGTQVTVSS
3. QVQLVESGGRLVQAGGSLRLSCAASGSTFGPYTMGWYRQAPGKERELVATISSGGSTYYADSVKGRFTISRDNAKNTVYLQMNSLKPEDTAVYYCAARYWSIYDYWGQGTQVTVSS

1. low polyreactivity
2. low polyreactivity
3. low polyreactivity

----------
Assay comment: yeast display, Sf9 membrane polyspecificity reagent, FACS + sequencing; frameworks hold sequencing errors
Recorded metric: polyreactivity (PSR sort gate)

Answered examples (5):
QVQLVESGGGLVQAGGSLRFSCAACGMTIWYYGMGSYRQAPGKERELLAAISKTGGRTYDADSVKGRFTISRDNAKNTVYLQMNRLKPEDTAVYNCNARYLLVSRYWENDYWGQATQVTVSS low polyreactivity
QVQLVESGGGLVQAGGSLRLSCAASDTPSSSMLMGWYRQAPGKERELVAAISGSDGTTYYADSVKGRFTISRDNAKNTVYLQMNSLKPEDTAVYYCAADDRVDSGYIKDDYWGQGTQVTVSS low polyreactivity
QVQLVESGGGLVQAGGSLSLSCAASGRIFPPYAMGWYRPAPGKERELVAAISVSGSNTYYADSVKGRFTISRYNAKNTVYLQMNSLKPEDTAVYYCNAKRYSPVYYWYDYCGQGTQVTVSS high polyreactivity
QVQLVESGGGLGQAGGSLSLSCAASGFNFSHYAMGWYIPAPGKERELVAAITRGGSTKYADSVKGRFTISRDNAKNTVDLEMNSLKPEDTAVYYCAKDKTYRNVRGVGYWGQGTQVTVSS high polyreactivity
QVQLVESGGGIVQAGGSLRLSCAASGSIFLYYAMGWYRQAPGNERQLVATINWSGGTTYYADSVKGRFTISRDNAKNTVYLQMNSLKPEDTAVYYCNKAKTAYRGQYDYWGQGTQVTVSS high polyreactivity

Each sequence below has a recorded value; state its polyreactivity (PSR sort gate).
1. QVQLVESGGGLVQAGGSLRLSCAASGRTFRGNAMGWYRQAPGKERELVAAISGSGGRTYYADSVKGRFTISRDNAKNTVYLKMNSLKPEDTAVFYCAAKRGKTYQRFDYWGQGTQVTVSS
2. QVQLVESGGGLVQAGGSLRLSCAASGRTFVRYALGWYRQAPGKERELVAAISWNDNSTYYADSVKGRFTISRDNAKNTVYLQMNSLKPEDTAVYYCATRVLTQQPGYQAYIFPEFDYWGQGTQVTVSS
3. QVQLVDSGGGLGQAVGILRLSCAASGNIFLYYAMGWYRQAPGKEREMVAAISWSGSSTYYADSVKGRFTISRYNAKNTVYLQMNSLKPEVTAVYYCNATTSSKDAFCFILVFGQGDYWGQGTQVSVSS
4. QVQLVESGGGLVQAGGSLRLSCAASGSTLAGYAMGWYRQAPGQERELVAAIDWTGGSTTYADSVKGRFTISRDNAKNTVYLQMNSLKPEDTAVYYCNVDLGVNCEYWGQGTQVTVSW
5. QVQLVESAGGLVHARGSLRLSCAASGRIFERNAMGSYRQAPGKERELVARITSGGGTYYADSVKGRFTISRDNAKNTVYLQMNSLKPEDTAVYYCAVQYLYRKYRRYDYWGLGTQVTVSS
6. QVQLVESGGGLVKAGGSLRLSCAASGLISAVYALGWYRQAPGKERELVAAITTSGGRTYYADSVKGRFTISRDNAKNTVYLQMNSLKPEDTAVYYCAAEHVRYLNPEFDYWGQGTQVTVSS

["high polyreactivity", "low polyreactivity", "low polyreactivity", "low polyreactivity", "high polyreactivity", "high polyreactivity"]
